Target: T1, N-terminal fluorescein-labeled IAPP (human, UniProt P10997 34-70, fluorescein on the N-terminus; subjected to air-oxidation)
T1 construct: also called Fluos-IAPP; source: synthetic peptide (Fmoc-SPPS, air-oxidation, RP-HPLC purified)
T1 chain (looked up): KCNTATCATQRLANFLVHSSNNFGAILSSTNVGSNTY
Experiment: other fluorescence titration; N-terminal fluorescently-labeled peptide (5 nM) titrated with unlabeled peptide; 10 mM sodium phosphate buffer, pH 7.4 (1% HFIP); measured within 2–5 min after preparation; apparent KDs from 1/1 binding models
Settings: both partners purified
pKd: −log10 of the molar value. Square brackets hold non-standard residues; d marks the D form. Ends that are not written are not given here. NMeF = CN[C@@H](Cc1ccccc1)C(=O)O; NMeL = CN[C@@H](CC(C)C)C(=O)O; NMeV = CN[C@H](C(=O)O)C(C)C; Nle = CCCC[C@H](N)C(=O)O
MEASUREMENT_NAME: pKd

Query :: What pKd value was documented for this binder, QK[NMeL]V[NMeF]FAEDFFFNKGAIIGL[Nle]VGGVV [F3-LF] ?
Result :: 7.42

Query :: What pKd value was documented for this binder, QKL[NMeV]F[NMeF]AEDLLLNKGAIIGL[Nle]VGGVV [L3-VF] ?
Result :: 7.11

Query :: What pKd value was documented for this binder, QK[NMeL]V[NMeF]FAED[Nle][Nle][Nle]NKGAIIGL[Nle]VGGVV [Nle3-LF] ?
Result :: 7.26

Query :: What pKd value was documented for this binder, QKL[NMeV]F[NMeF]AED[Nle][Nle][Nle]NKGAIIGL[Nle]VGGVV [Nle3-VF] ?
Result :: 7.16

(A) QKL[NMeV]F[NMeF]AEDFFFNKGAIIGL[Nle]VGGVV [F3-VF]
(B) QK[NMeL]V[NMeF]FAEDLLLNKGAIIGL[Nle]VGGVV [L3-LF]
Query :: Short answer wanted: higher pKd, A or B ? Answer by quoting the chosen item's label.
Result :: A
